TEST TARGET: glutathione S-transferase (Schistosoma japonicum GST tag binding GSH beads)
MEASUREMENT PROTOCOL: GST–glutathione bead interaction interference profiling – biochemical, multiplex beads, flow cytometry, profiling panel (AID 1769);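 note: target is a GST and green fluorescent protein fusion captured on glutathione beads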
CONDITIONS USED: flow cytometry fluorescence
ENDPOINT: EC50

In [3]: df
Out[3]:
                                    compound  endpoint  measured_result
 0  CC(=O)N1C(=O)/C(=C2\SC(=S)N(NC(=O)c3ccc(O)cc3)C2=O)c2ccccc21      EC50          4.13 µM
 1    O=C(Nc1cccc(Cl)c1)Nc1ccnc(-c2cccnc2)n1      EC50         0.499 µM
 2  O=C(N/N=C(\c1ccccc1)c1ccccn1)c1cccc([N+](=O)[O-])c1      EC50          38.1 µM
 3  O=C1Nc2ccc(Br)cc2C12NNc1ccccc1O2 (centres undefined)      EC50          2.38 µM
 4  Cc1ccc(O)c(N=Cc2cc(Cc3ccccc3)cc([N+](=O)[O-])c2O)c1      EC50          8.29 µM
 5   O=C(CSc1ccc2nnc(-c3ccncc3)n2n1)Nc1nccs1      EC50          35.1 µM
 6   COc1ccc(Nc2nc(-c3c(C)nc4ncccn34)cs2)cc1      EC50          8.39 µM
 7  COc1cccc(C2CC(c3ccccc3)Nc3ncnn32)c1 (centres undefined)      EC50          6.49 µM
 8  CCC1CCCCN1S(=O)(=O)c1ccc(NC(=O)CSc2ncccc2C(=O)O)cc1 (centres undefined)      EC50          10.7 µM
 9  CCN1/C(=C/c2ccc3cc(C)ccc3[n+]2C)Sc2ccc3sccc3c21      EC50            21 µM
10        O=c1c2ccccc2nc2c3ccccc3c(NCCO)nn12      EC50          3.55 µM
11  CCOc1ccccc1C(=O)Nc1cccc(-c2ccc3nncn3n2)c1      EC50          1.96 µM
12  O=S1(=O)N=C(N(CCO)/N=C/c2ccccc2)c2ccccc21      EC50          51.9 µM
13  CCn1cc(C(=O)O)c(=O)c2cc(F)c(N/N=C/c3ccccc3[N+](=O)[O-])cc21      EC50          2.67 µM

---

Measured pEC50 accompanies every entry in the list below.
TEST TARGET: glutathione S-transferase (Schistosoma japonicum GST tag binding GSH beads)
MEASUREMENT PROTOCOL: GST–glutathione bead interaction interference profiling – biochemical, multiplex beads, flow cytometry, profiling panel (AID 1769);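 note: target is a GST and green fluorescent protein fusion captured on glutathione beads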
CONDITIONS USED: flow cytometry fluorescence
pEC50: −log10 of the molar value.
ENDPOINT: pEC50

>>> print(df.to_string())
                                    compound                               test_target  endpoint  measured_result
 0  Cc1cc(=O)[nH]c2c(N=Nc3ccc(O)cc3)c(N)nn12  glutathione S-transferase (Schistosoma japonicum GST tag binding GSH beads)     pEC50             5.85
 1  CCN(CC)c1ccc(/C=C(\C#N)C(=O)c2ccc(Br)cc2)cc1  glutathione S-transferase (Schistosoma japonicum GST tag binding GSH beads)     pEC50             4.95
 2  CCNC(=S)N=Nc1c(O)[nH]c2ccc([N+](=O)[O-])cc12  glutathione S-transferase (Schistosoma japonicum GST tag binding GSH beads)     pEC50             5.71
 3  O=C(Oc1c(Br)cc(C(=S)N2CCOCC2)cc1Br)c1ccc(Cl)cc1  glutathione S-transferase (Schistosoma japonicum GST tag binding GSH beads)     pEC50             5.53
 4  Cc1nnc2ccc(-c3cccc(NC(=O)c4ccco4)c3)nn12  glutathione S-transferase (Schistosoma japonicum GST tag binding GSH beads)     pEC50             5.11
 5  Cc1cc2nc3c(=O)n(C4CCCCC4)c(=O)[nH]c3nc2cc1N  glutathione S-transferase (Schistosoma japonicum GST tag binding GSH beads)     pEC50             5.16
 6      Cc1nc2ncccn2c1-c1csc(Nc2ccc(O)cc2)n1  glutathione S-transferase (Schistosoma japonicum GST tag binding GSH beads)     pEC50             6.58
 7    CN(/N=C/c1ccco1)C1=NS(=O)(=O)c2ccccc21  glutathione S-transferase (Schistosoma japonicum GST tag binding GSH beads)     pEC50             5.59
 8  CN(/N=C/c1ccc(Br)o1)C1=NS(=O)(=O)c2ccccc21  glutathione S-transferase (Schistosoma japonicum GST tag binding GSH beads)     pEC50             6.73
 9   CN(/N=C/c1cccnc1)C1=NS(=O)(=O)c2ccccc21  glutathione S-transferase (Schistosoma japonicum GST tag binding GSH beads)     pEC50             5.30
10  CCN1/C(=C/C=C/c2oc3ccc4ccccc4c3[n+]2CC)Oc2ccc3ccccc3c21  glutathione S-transferase (Schistosoma japonicum GST tag binding GSH beads)     pEC50             6.65
11  COc1cc(OC)c(-c2c3cc(O)c(=O)cc-3oc3cc(O)c(O)cc23)cc1OC  glutathione S-transferase (Schistosoma japonicum GST tag binding GSH beads)     pEC50             6.59
12        CCCCNc1nc(=S)[nH]c2cc(OC)c(OC)cc12  glutathione S-transferase (Schistosoma japonicum GST tag binding GSH beads)     pEC50             4.96
13  COc1ccc(C(=O)N/N=c2\oc3ccccc3cc2C(N)=O)cc1  glutathione S-transferase (Schistosoma japonicum GST tag binding GSH beads)     pEC50             5.34
14  O=C(CSc1ccccc1)Nc1ccc(C(=O)Nc2cccc(O)c2)cc1  glutathione S-transferase (Schistosoma japonicum GST tag binding GSH beads)     pEC50             5.72
15  O=C(CN1CCN(c2ccc(O)cc2)CC1)Nc1cc(S(=O)(=O)N2CCCCC2)ccc1Cl  glutathione S-transferase (Schistosoma japonicum GST tag binding GSH beads)     pEC50             4.72
16  COc1cc(N2CCCC2)c(OC)cc1/C=C(/C#N)c1cccc(F)c1  glutathione S-transferase (Schistosoma japonicum GST tag binding GSH beads)     pEC50             5.77
17  CC(C)c1cc(NCc2ccccn2)n2c(nc3ccccc32)c1C#N  glutathione S-transferase (Schistosoma japonicum GST tag binding GSH beads)     pEC50             5.55
18  COc1cc(/C=N/Nc2nc(C)nc3c2cnn3-c2ccccc2)ccc1O  glutathione S-transferase (Schistosoma japonicum GST tag binding GSH beads)     pEC50             6.20
19  CCC(C)N1C(=O)/C(=C/c2c(NCCCOC(C)C)nc3c(C)cccn3c2=O)SC1=S (centres undefined)  glutathione S-transferase (Schistosoma japonicum GST tag binding GSH beads)     pEC50             6.70
20  CCN(c1ccc(N=Cc2c(O)n(Cc3ccc(OC)cc3)c(=O)c3ccccc23)cc1)C(C)C  glutathione S-transferase (Schistosoma japonicum GST tag binding GSH beads)     pEC50             6.60
21       CCCc1nc2oc3c(=O)[nH]cnc3c2c2c1CCCC2  glutathione S-transferase (Schistosoma japonicum GST tag binding GSH beads)     pEC50             5.69
22                Oc1c(CN2CCOCC2)ccc2ccccc12  glutathione S-transferase (Schistosoma japonicum GST tag binding GSH beads)     pEC50             4.61
23  COc1ccc(/C=N/n2c(N)c(S(=O)(=O)c3cccs3)c3nc4ccccc4nc32)cc1OC  glutathione S-transferase (Schistosoma japonicum GST tag binding GSH beads)     pEC50             6.21

Provenance of the data: PubChem BioAssay AID1769
